# system-tested: Vascular endothelial growth factor receptor 1 (Homo sapiens)
# applied-conditions: at 1 µM
# Description: GSK_PKIS: FLT1 mean inhibition at 1 uM [Nanosyn]
observable: inhibition (%)
Just the number in %, nothing appended.

Input line: Item under review: NC(=O)c1cccc(Nc2nccc(Nc3cccc(F)c3)n2)c1 . Reported inhibition?
Output line: 16.4

Input line: Then what about the compound CCOc1nccc2c1nc(-c1nonc1N)n2CC ?
Output line: 2.02

Input line: Then what about the compound CN(C)C(=O)O[C@@H]1CN[C@@H](C#Cc2cc3ncnc(Nc4ccc(OCc5cccc(F)c5)c(Cl)c4)c3s2)C1 ?
Output line: 1.01

Input line: Then what about the compound OCc1ccc(-c2nc(-c3ccccn3)c(-c3ccc4c(c3)OCO4)[nH]2)cc1 ?
Output line: 2.09

Input line: Then what about the compound NS(=O)(=O)c1cccc(Nc2cc(-c3ccc(F)cc3)n[nH]2)c1 ?
Output line: 15.9

Input line: Then what about the compound ON=C1CCc2cc(-c3nc(C4CCNCC4)[nH]c3-c3ccncc3)ccc21 ?
Output line: 0.61

Input line: Then what about the compound COc1cccc(-n2ncc3c(N/N=C/c4ccc(C)cc4)ncnc32)c1 ?
Output line: 0.15

Input line: Then what about the compound NS(=O)(=O)c1ccc(Nc2cc(-c3cccc(O)c3)n[nH]2)cc1 ?
Output line: 11.9

Input line: Then what about the compound Cc1cc(O)cc(C)c1/C=C/c1cncc(C(=O)N(C)C)c1 ?
Output line: 3.14

Input line: Then what about the compound c1ccc(Cc2nc3ccc(Nc4ncnc5ccccc45)cc3[nH]2)cc1 ?
Output line: 4.39

Input line: Then what about the compound FC(F)(F)c1ccc(-c2nn3ncccc3c2-c2ccnc(Nc3ccc4c(c3)OCCO4)n2)cc1 ?
Output line: 4.89

Input line: Then what about the compound CS(=O)(=O)CCNCc1nc(-c2ccc3ncnc(Nc4ccc(OCc5cccc(C(F)(F)F)c5)cc4)c3c2)cs1 ?
Output line: -0.5

Input line: Then what about the compound CS(=O)(=O)Nc1cccc(-c2ccc3c(NC(=O)C4CC4)n[nH]c3c2)c1 ?
Output line: -1.44

Input line: Then what about the compound COc1cc2ncnc(Nc3ccc4c(cnn4Cc4ccccc4)c3)c2cc1OC ?
Output line: 3.06

Input line: Then what about the compound Cc1cc(-c2ccccn2)cc(C)c1/C=C/c1cncc(-c2nn[nH]n2)c1 ?
Output line: 1.74

Input line: Then what about the compound Nc1nccc(C#Cc2cncnc2Nc2ccc(OCc3cccc(F)c3)c(Cl)c2)n1 ?
Output line: 3.36

* * *

# system-tested: Serine/threonine-protein kinase D2 (Homo sapiens) (UniProt Q9BZL6);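 further: reported percent inhibition values are means, part of the GSK PKIS kinase panel screen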
# Sequence (Q9BZL6 whole entry): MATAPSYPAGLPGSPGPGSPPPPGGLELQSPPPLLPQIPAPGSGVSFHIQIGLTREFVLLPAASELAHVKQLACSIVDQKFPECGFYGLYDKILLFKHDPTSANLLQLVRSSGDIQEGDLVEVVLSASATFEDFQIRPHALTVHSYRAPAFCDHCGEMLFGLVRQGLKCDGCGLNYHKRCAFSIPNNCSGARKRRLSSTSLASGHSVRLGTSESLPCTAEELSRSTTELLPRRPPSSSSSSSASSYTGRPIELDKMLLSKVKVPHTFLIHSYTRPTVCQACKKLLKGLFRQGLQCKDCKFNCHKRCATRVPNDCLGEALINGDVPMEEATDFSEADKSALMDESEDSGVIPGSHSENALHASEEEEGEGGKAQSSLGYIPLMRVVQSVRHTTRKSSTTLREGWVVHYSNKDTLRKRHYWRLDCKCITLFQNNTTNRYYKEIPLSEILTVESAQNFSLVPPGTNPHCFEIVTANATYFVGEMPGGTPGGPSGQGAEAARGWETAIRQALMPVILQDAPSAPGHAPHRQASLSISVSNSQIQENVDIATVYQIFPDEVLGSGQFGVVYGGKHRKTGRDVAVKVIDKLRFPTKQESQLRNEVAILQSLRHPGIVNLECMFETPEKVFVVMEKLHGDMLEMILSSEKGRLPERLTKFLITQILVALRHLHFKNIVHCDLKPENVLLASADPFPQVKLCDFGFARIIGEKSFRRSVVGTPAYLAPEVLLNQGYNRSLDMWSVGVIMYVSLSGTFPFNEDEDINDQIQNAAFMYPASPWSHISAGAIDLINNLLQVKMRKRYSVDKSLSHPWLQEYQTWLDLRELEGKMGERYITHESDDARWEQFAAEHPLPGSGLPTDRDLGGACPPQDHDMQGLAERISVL
# applied-conditions: at 0.1 µM
observable: inhibition (%)
Just the number in %, nothing appended.

Input line: Item under review: Cc1cc(O)cc(C)c1/C=C/c1cncc(C(=O)N(C)C)c1 . Reported inhibition?
Output line: -2.38

Input line: Then what about the compound COc1cc2ncn(-c3cc(OCc4ccccc4S(C)(=O)=O)c(C#N)s3)c2cc1OC ?
Output line: 3.97

Input line: Then what about the compound C[C@@H](Oc1cc(-n2cnc3ccc(OC[C@@H](O)CO)cc32)sc1C(N)=O)c1ccccc1Cl ?
Output line: 0.81

Input line: Then what about the compound COc1cc(Nc2nccc(-c3cnn4ncccc34)n2)cc(OC)c1 ?
Output line: 2.57
